study.target: human PHD2181-417 (Homo sapiens (Human), UniProt Q9GZT9)
Sequence (Q9GZT9 181-417): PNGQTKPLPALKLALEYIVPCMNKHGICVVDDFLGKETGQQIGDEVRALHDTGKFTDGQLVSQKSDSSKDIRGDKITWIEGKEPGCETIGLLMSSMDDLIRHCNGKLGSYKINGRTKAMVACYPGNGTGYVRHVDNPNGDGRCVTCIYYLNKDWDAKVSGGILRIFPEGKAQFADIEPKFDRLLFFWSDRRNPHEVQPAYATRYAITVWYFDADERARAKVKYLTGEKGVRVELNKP
protocol.summary: PHD2 enzyme activity assay ([14C]-succinic acid production)
Assay type: biochemical
experimental.parameters: PHD2181-417 polypeptide, HIF-1α peptide 10 μM, [5-14C]-2-oxoglutaric acid; 30 min pre-incubation; tested 10 μM to 3 nM
The threshold is inclusive: Enzyme pIC50 of exactly 7 counts as criterion met; values below receive criterion not met.

Known results for compounds:
compound | answer.label
C[S+]([O-])c1cc2[nH]c(-n3cc(C(=O)O)cn3)nc2cc1C(F)(F)F (centres unmarked) | criterion met
O=C(O)c1cnn(-c2nc3cc(S(=O)(=O)c4ccc(Cl)cc4)c(Cl)cc3[nH]2)c1 | criterion met
O=C(O)c1cnn(-c2nc3cc(Cl)cc(C(F)(F)F)c3[nH]2)c1 | criterion not met
CC(C)S(=O)(=O)c1cc2[nH]c(-n3cc(C(=O)O)cn3)nc2cc1OC(F)(F)F | criterion met
O=C(O)c1cnn(-c2nc3nccnc3[nH]2)c1 | criterion not met
O=C(O)c1cnn(-c2nc3cc(SCc4ccc(C(F)(F)F)cc4C(F)(F)F)c(Cl)cc3[nH]2)c1 | criterion not met

Please find the next compound below.
Task: Kindly determine if Enzyme pIC50 recorded for `O=C(O)c1cnn(-c2nc3cc(Oc4ccc(Cl)c(Cl)c4)c(C(F)(F)F)cc3[nH]2)c1` is above or exactly 7.
Output: criterion met

----------
study.target: human PHD2181-417 (Homo sapiens (Human), UniProt Q9GZT9)
protocol.summary: PHD2 enzyme activity assay ([14C]-succinic acid production)
Format: biochemical
experimental.parameters: PHD2181-417 polypeptide, HIF-1α peptide 10 μM, [5-14C]-2-oxoglutaric acid; 30 min pre-incubation; tested 10 μM to 3 nM
Recorded Enzyme pIC50, one value per entry.
Write no unit; give the number alone.

Here are 6 compounds together with their reported answers.
compound | Enzyme pIC50
O=C(O)c1cnn(-c2nc3cc(Sc4ccccc4)c(C(F)(F)F)cc3[nH]2)c1 [Example 159] | 7.4
CS(=O)(=O)c1cc2[nH]c(-n3cc(C(=O)O)cn3)nc2cc1Cl [Example 99] | 7.4
CCCSc1cc2[nH]c(-n3cc(C(=O)O)cn3)nc2cc1OC(F)(F)F [Example 81] | 7
Cc1cc(Cl)cc2[nH]c(-n3cc(C(=O)O)cn3)nc12 [Example 33] | 6
O=C(O)c1cnn(-c2nc3cc(SCCN4CCOCC4)c(Cl)cc3[nH]2)c1 [Example 166] | 7
O=C(O)c1cnn(-c2nc3cc(C(F)(F)F)c(C(F)(F)F)cc3[nH]2)c1 [Example 126] | 7.4

Task: Entry under review: O=C(O)c1cnn(-c2nc3cc(SCc4cccc(Cl)c4)c(Cl)cc3[nH]2)c1 [Example 164] . Reported Enzyme pIC50?
Output: 6.6

Task: Next compound up: O=C(O)c1cnn(-c2nc3cc(Cl)c(Cl)cc3[nH]2)c1 [Example 2]
Output: 6.9

Task: Next compound up: CCS(=O)(=O)c1cc2nc(-n3cc(C(=O)O)cn3)[nH]c2cc1F [Example 156]
Output: 7.4

----------
study.target: human PHD2181-417 (Homo sapiens (Human), UniProt Q9GZT9)
protocol.summary: PHD2 enzyme activity assay ([14C]-succinic acid production);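 note: reaction ran 10 min with compound in Tris pH 7.5 buffer with catalase, DTT and ascorbate, labelled succinate freed of leftover 2-oxoglutarate by DNP precipitation, then beta counted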
Assay type: biochemical
experimental.parameters: PHD2181-417 polypeptide, HIF-1α peptide 10 μM, [5-14C]-2-oxoglutaric acid; 30 min pre-incubation; tested 10 μM to 3 nM
Note: every record was labeled by where its Enzyme pIC50 sits among Low (below 6), Medium (6 to below 7), High (7 or more)

Known results for molecules:
molecule | answer.label
O=C(O)c1cnn(-c2nc3cc(C(=O)NN4CCOCC4)ccc3[nH]2)c1 [Example 122] | Medium
CCS(=O)(=O)c1cc2nc(-n3cc(C(=O)O)cn3)[nH]c2cc1OC(F)(F)F [Example 155] | High

Task: Which Enzyme pIC50 band matches Cc1c(F)ccc2[nH]c(-n3cc(C(=O)O)cn3)nc12 [Example 116] ?
Output: Low

Task: Next molecule up: O=C(O)c1cnn(-c2nc3cc(SCc4ccc(Cl)cc4)c(Cl)cc3[nH]2)c1 [Example 163]
Output: Medium

Task: Next molecule up: O=C(O)c1cnn(-c2nc3cc(N4CCCCC4)c(Cl)cc3[nH]2)c1 [Example 44]
Output: Medium

Task: Next molecule up: O=C(O)c1cnn(-c2nc3cc(OCc4ccccc4)c(Cl)cc3[nH]2)c1 [Example 59]
Output: Medium
